# System: RAW264.7
# test.description: Cytotoxicity against rat RAW264.7 cells by MTT assay
# Assay type: cell-based
# condition.info: rat, raw264.7
readout.type: IC90 (µM)
Reply numerically in µM, unit not repeated.

Q) GET /values?readout=IC90&item= `CCN(CC)CCNc1cc(C)nc2c1ccc1c2ccc2c(NCCN(CC)CC)cc(C)nc21.Cl`
A) 10.7

Q) Then this molecule: `Cc1cc(NCCN2CCOCC2)c2ccc3c(ccc4c(NCCN5CCOCC5)cc(C)nc43)c2n1.Cl`
A) 29.9

Q) Then this molecule: `Cc1cc(NCCCN2CCOCC2)c2ccc3c(ccc4c(NCCCN5CCOCC5)cc(C)nc43)c2n1.Cl`
A) 11
